These entries and their values trace back to the supplement of paper PMC6757056.

B1: library; a variant is named by its letters at N, in order (parent)
chain: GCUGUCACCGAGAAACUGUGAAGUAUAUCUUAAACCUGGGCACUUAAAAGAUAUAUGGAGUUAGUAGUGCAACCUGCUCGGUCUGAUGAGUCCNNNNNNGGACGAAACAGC

variants of: B1; assay: normalized RNA/DNA level without ligand (relative to sTRSVctl = 100) (log10 (% of sTRSVctl)); HEK293T; ligand: cyclic di-GMP (c-di-GMP-II aptamer); higher = less ribozyme self-cleavage, higher mRNA level; conditions: reporter: mCherry (pCS4076), ligand present: no
readoutName: normalized RNA/DNA level without ligand (log10)

[
  {
    "polymerSequence": "GCUGUCACCGAGAAACUGUGAAGUAUAUCUUAAACCUGGGCACUUAAAAGAUAUAUGGAGUUAGUAGUGCAACCUGCUCGGUCUGAUGAGUCCAGCCGAGGACGAAACAGC [AGCCGA]",
    "recordedNumber": 1.75
  },
  {
    "polymerSequence": "GCUGUCACCGAGAAACUGUGAAGUAUAUCUUAAACCUGGGCACUUAAAAGAUAUAUGGAGUUAGUAGUGCAACCUGCUCGGUCUGAUGAGUCCGGCCCAGGACGAAACAGC [GGCCCA]",
    "recordedNumber": 1.8
  },
  {
    "polymerSequence": "GCUGUCACCGAGAAACUGUGAAGUAUAUCUUAAACCUGGGCACUUAAAAGAUAUAUGGAGUUAGUAGUGCAACCUGCUCGGUCUGAUGAGUCCCAGAGUGGACGAAACAGC [CAGAGU]",
    "recordedNumber": 1.65
  },
  {
    "polymerSequence": "GCUGUCACCGAGAAACUGUGAAGUAUAUCUUAAACCUGGGCACUUAAAAGAUAUAUGGAGUUAGUAGUGCAACCUGCUCGGUCUGAUGAGUCCCUUGGCGGACGAAACAGC [CUUGGC]",
    "recordedNumber": 1.79
  },
  {
    "polymerSequence": "GCUGUCACCGAGAAACUGUGAAGUAUAUCUUAAACCUGGGCACUUAAAAGAUAUAUGGAGUUAGUAGUGCAACCUGCUCGGUCUGAUGAGUCCGCCGCUGGACGAAACAGC [GCCGCU]",
    "recordedNumber": 1.72
  },
  {
    "polymerSequence": "GCUGUCACCGAGAAACUGUGAAGUAUAUCUUAAACCUGGGCACUUAAAAGAUAUAUGGAGUUAGUAGUGCAACCUGCUCGGUCUGAUGAGUCCGGCGUAGGACGAAACAGC [GGCGUA]",
    "recordedNumber": 1.6
  },
  {
    "polymerSequence": "GCUGUCACCGAGAAACUGUGAAGUAUAUCUUAAACCUGGGCACUUAAAAGAUAUAUGGAGUUAGUAGUGCAACCUGCUCGGUCUGAUGAGUCCUGCAAAGGACGAAACAGC [UGCAAA]",
    "recordedNumber": 1.74
  },
  {
    "polymerSequence": "GCUGUCACCGAGAAACUGUGAAGUAUAUCUUAAACCUGGGCACUUAAAAGAUAUAUGGAGUUAGUAGUGCAACCUGCUCGGUCUGAUGAGUCCCGGGCCGGACGAAACAGC [CGGGCC]",
    "recordedNumber": 1.92
  },
  {
    "polymerSequence": "GCUGUCACCGAGAAACUGUGAAGUAUAUCUUAAACCUGGGCACUUAAAAGAUAUAUGGAGUUAGUAGUGCAACCUGCUCGGUCUGAUGAGUCCUCCGUUGGACGAAACAGC [UCCGUU]",
    "recordedNumber": 1.67
  },
  {
    "polymerSequence": "GCUGUCACCGAGAAACUGUGAAGUAUAUCUUAAACCUGGGCACUUAAAAGAUAUAUGGAGUUAGUAGUGCAACCUGCUCGGUCUGAUGAGUCCUUGGCAGGACGAAACAGC [UUGGCA]",
    "recordedNumber": 1.76
  },
  {
    "polymerSequence": "GCUGUCACCGAGAAACUGUGAAGUAUAUCUUAAACCUGGGCACUUAAAAGAUAUAUGGAGUUAGUAGUGCAACCUGCUCGGUCUGAUGAGUCCUCACUAGGACGAAACAGC [UCACUA]",
    "recordedNumber": 1.51
  },
  {
    "polymerSequence": "GCUGUCACCGAGAAACUGUGAAGUAUAUCUUAAACCUGGGCACUUAAAAGAUAUAUGGAGUUAGUAGUGCAACCUGCUCGGUCUGAUGAGUCCACCUGCGGACGAAACAGC [ACCUGC]",
    "recordedNumber": 1.71
  },
  {
    "polymerSequence": "GCUGUCACCGAGAAACUGUGAAGUAUAUCUUAAACCUGGGCACUUAAAAGAUAUAUGGAGUUAGUAGUGCAACCUGCUCGGUCUGAUGAGUCCGUGGGCGGACGAAACAGC [GUGGGC]",
    "recordedNumber": 1.44
  },
  {
    "polymerSequence": "GCUGUCACCGAGAAACUGUGAAGUAUAUCUUAAACCUGGGCACUUAAAAGAUAUAUGGAGUUAGUAGUGCAACCUGCUCGGUCUGAUGAGUCCCAUACAGGACGAAACAGC [CAUACA]",
    "recordedNumber": 1.38
  },
  {
    "polymerSequence": "GCUGUCACCGAGAAACUGUGAAGUAUAUCUUAAACCUGGGCACUUAAAAGAUAUAUGGAGUUAGUAGUGCAACCUGCUCGGUCUGAUGAGUCCCACGCGGGACGAAACAGC [CACGCG]",
    "recordedNumber": 1.73
  },
  {
    "polymerSequence": "GCUGUCACCGAGAAACUGUGAAGUAUAUCUUAAACCUGGGCACUUAAAAGAUAUAUGGAGUUAGUAGUGCAACCUGCUCGGUCUGAUGAGUCCUGGCGAGGACGAAACAGC [UGGCGA]",
    "recordedNumber": 1.6
  }
]
